Biological target: Aminopeptidase N (Plasmodium falciparum (isolate 3D7))
Assay: malaria alanyl aminopeptidase activity blockers – biochemical, fluorogenic H-Leu-NHMec substrate, 1536-well (AID 1445);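 further: plate controls were DMSO full reaction for no effect and no enzyme background for full effect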
Details: recombinant M1AAP, H-Leu-NHMec fluorogenic kinetic assay; at 30 µM, active compounds read high unless noted
Hit rate of the full screen: of about 220,000 compounds, about 910 (0.41%) were called active. The sample as a whole holds a higher share of actives than the screen did. Results with a measured potency or affinity are listed apart.
Listing: inhibition of selected compounds
Outcome measure: inhibition (%)

> print(dat)
                                   compound  outcome.measure  test.value
1  CCOC(=O)c1c(-c2ccc(-c3ccccc3)cc2)csc1NC(=O)C1C2CCC(O2)C1C(=O)O (stereo not given)       inhibition        3.79
2  CCC(=O)Nc1nc(C)c(-c2csc(Nc3ccc(S(=O)(=O)Nc4cc(C)on4)cc3)n2)s1       inhibition        6.43
3  CC1CCC(C(C)C)C(OC(=O)COC(=O)c2cc(O)ccc2N)C1 (stereo not given)       inhibition           6
4  Cc1cc(NC(=O)CSc2nnc(-c3ccncc3)n2-c2ccccc2)no1       inhibition        10.6
5  COc1ccc(-c2nn(-c3ccccc3)cc2/C=C/C(=O)N2CCN(c3ccccn3)CC2)cc1       inhibition        1.49

====

Molecular target: Aminopeptidase N (Plasmodium falciparum (isolate 3D7))
Test: malaria alanyl aminopeptidase activity blockers – biochemical, fluorogenic H-Leu-NHMec substrate, 1536-well (AID 1445)
Details: recombinant M1AAP, H-Leu-NHMec fluorogenic kinetic assay; at 30 µM
Hit rate of the full screen: of about 220,000 compounds, about 910 (0.41%) were called active.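 Rule for the calls: active = primary inhibition above the hit cutoff, then over 50% inhibition at one or more dose response concentrations (cut at about 23% in these data, passing the limit was not always enough); inconclusive = conflicting primary data, or primary hits not chosen for dose response; inactive = low primary inhibition, or under 50% at every dose.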 The entries come from a sample that favours actives as a whole. Potency and affinity values are given separately.
Labels: TRUE (active), FALSE (inactive)

> print(dat)
                                   compound  category.label
1               O=c1c2ccccc2nnn1Cc1ccccc1Cl           FALSE
2  O=C(CSc1nnc(CCCN2C(=O)c3cccc4cccc(c34)C2=O)n1-c1ccccc1)NCCCO           FALSE
3        CC(=NCc1ccncc1)C1=C(O)c2ccccc2C1=O            TRUE
4  CCOC(=O)c1c(NC(=O)CSc2ncnc3ccccc23)sc(C)c1C           FALSE
5  CNc1oc(-c2ccc(C)cc2)nc1P(=O)(c1ccccc1)c1ccccc1           FALSE
6  CC(=O)Nc1ccc(S(=O)(=O)N2CCN(CC(O)COc3ccc4ccccc4c3)CC2)cc1 (stereo unspecified)           FALSE

====

Target: Aminopeptidase N (Plasmodium falciparum (isolate 3D7)) (UniProt O96935)
Sequence (O96935 whole entry, looked up): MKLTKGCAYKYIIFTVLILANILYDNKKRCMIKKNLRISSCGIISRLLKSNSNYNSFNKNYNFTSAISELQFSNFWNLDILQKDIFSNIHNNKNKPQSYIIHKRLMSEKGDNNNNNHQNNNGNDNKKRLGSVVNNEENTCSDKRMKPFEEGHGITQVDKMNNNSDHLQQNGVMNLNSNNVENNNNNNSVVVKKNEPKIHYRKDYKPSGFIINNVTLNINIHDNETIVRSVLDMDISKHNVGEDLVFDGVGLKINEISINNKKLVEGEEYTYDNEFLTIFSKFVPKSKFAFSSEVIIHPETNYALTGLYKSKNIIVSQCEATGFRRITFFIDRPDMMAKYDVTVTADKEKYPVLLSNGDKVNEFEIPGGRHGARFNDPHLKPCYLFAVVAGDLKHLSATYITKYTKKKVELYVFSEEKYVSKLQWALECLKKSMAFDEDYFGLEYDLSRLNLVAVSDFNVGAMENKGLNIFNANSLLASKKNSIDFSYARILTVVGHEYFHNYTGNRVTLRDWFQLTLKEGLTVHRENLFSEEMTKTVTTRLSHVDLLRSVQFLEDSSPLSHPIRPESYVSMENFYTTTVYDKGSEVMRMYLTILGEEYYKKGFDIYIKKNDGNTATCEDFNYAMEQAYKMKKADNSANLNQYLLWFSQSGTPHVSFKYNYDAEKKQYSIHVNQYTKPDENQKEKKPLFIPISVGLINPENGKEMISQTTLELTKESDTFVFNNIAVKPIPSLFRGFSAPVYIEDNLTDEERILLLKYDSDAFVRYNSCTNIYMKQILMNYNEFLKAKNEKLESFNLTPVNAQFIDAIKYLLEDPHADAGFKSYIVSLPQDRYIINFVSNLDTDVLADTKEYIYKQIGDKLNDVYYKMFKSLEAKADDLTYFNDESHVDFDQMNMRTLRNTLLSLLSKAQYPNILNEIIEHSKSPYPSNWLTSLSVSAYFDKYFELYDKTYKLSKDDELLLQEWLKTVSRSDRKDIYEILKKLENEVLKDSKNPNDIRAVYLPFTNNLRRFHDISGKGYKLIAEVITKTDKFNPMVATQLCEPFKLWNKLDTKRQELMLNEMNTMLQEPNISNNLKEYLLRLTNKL
Test: malaria alanyl aminopeptidase activity blockers – biochemical, fluorogenic H-Leu-NHMec substrate, 1536-well (AID 1445);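 further: plate controls were DMSO full reaction for no effect and no enzyme background for full effect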
Conditions: recombinant M1AAP, H-Leu-NHMec fluorogenic kinetic assay; at 30 µM, active compounds read high unless noted
Screen size: about 220,000 compounds; about 910 (0.41%) were called active. The full list was thinned out, with actives kept by preference. Entries with a potency or affinity are not part of this list.
Item-by-item account of inhibition
Outcome measure: inhibition (%)

> print(dat)
                                    compound                              assay.target  unit.name  test.value
 1  Cc1cn(-c2ccccc2)c(C)c1/C=N\Nc1nc(N2CCOCC2)nc(N2CCOCC2)n1  Aminopeptidase N (Plasmodium falciparum (isolate 3D7)) (UniProt O96935)          %        4.34
 2  OCCC1CN(Cc2c(F)cccc2Cl)CCN1C1CCCC1 (stereo unspecified)  Aminopeptidase N (Plasmodium falciparum (isolate 3D7)) (UniProt O96935)          %       -1.58
 3  Cc1cccc(NC(=O)C(NS(=O)(=O)c2ccc3c(c2)CCC(=O)N3)c2ccccc2)n1 (stereo unspecified)  Aminopeptidase N (Plasmodium falciparum (isolate 3D7)) (UniProt O96935)          %        2.64
 4  CCN(Cc1ccccc1)C(=O)c1cc(COc2c(F)cccc2F)on1  Aminopeptidase N (Plasmodium falciparum (isolate 3D7)) (UniProt O96935)          %           5
 5  C=C(C)c1cccc(C(C)(C)NC(=O)Nc2ccc(Cl)cn2)c1  Aminopeptidase N (Plasmodium falciparum (isolate 3D7)) (UniProt O96935)          %        6.48
 6  COc1ccc(C2CC(=O)NC3=C2C(=O)CCC3)cc1Cl (stereo unspecified)  Aminopeptidase N (Plasmodium falciparum (isolate 3D7)) (UniProt O96935)          %        -1.4
 7       COc1ccccc1OCC(=O)N/N=C1\CCc2ccccc21  Aminopeptidase N (Plasmodium falciparum (isolate 3D7)) (UniProt O96935)          %       -5.88
 8  CCn1c(O)c(N=NC(=O)Cn2ccc(C(F)(F)F)n2)c2ccccc21  Aminopeptidase N (Plasmodium falciparum (isolate 3D7)) (UniProt O96935)          %        5.05
 9             CCc1cc2c(-n3nc(C)cc3C)ncnc2s1  Aminopeptidase N (Plasmodium falciparum (isolate 3D7)) (UniProt O96935)          %        4.83
10  CN(Cc1cnccn1)Cc1c(C(=O)N2CCc3ccccc3C2)nc2ccc(Cl)cn12  Aminopeptidase N (Plasmodium falciparum (isolate 3D7)) (UniProt O96935)          %        1.48
11               Cc1cc(=O)oc2cc3c(cc12)OCCO3  Aminopeptidase N (Plasmodium falciparum (isolate 3D7)) (UniProt O96935)          %        9.01

====

Molecular target: Aminopeptidase N (Plasmodium falciparum (isolate 3D7)) (UniProt O96935)
Assay: malaria alanyl aminopeptidase activity blockers – biochemical, fluorogenic H-Leu-NHMec substrate, 1536-well (AID 1445);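 further: plate controls were DMSO full reaction for no effect and no enzyme background for full effect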
Details: recombinant M1AAP, H-Leu-NHMec fluorogenic kinetic assay; at 30 µM, active compounds read high unless noted
About 910 (0.41%) of roughly 220,000 compounds were called active. Many of the other results were omitted from the sample, so actives are more common in it than they were. Potency and affinity values are given separately.
Outcome measure: inhibition (%)

> print(dat)
                                    compound  test.value
 1            NC(=O)c1cccc(CC(=O)c2ccccc2)c1        8.26
 2  Cc1ccc(C)c(N(C)C(=O)c2cc3c(=O)[nH]c4ccc(C)cc4c3s2)c1       -2.28
 3  N#Cc1c(NC(=O)CN2CCOCC2)oc(-c2ccccc2)c1-c1ccccc1        23.5
 4  O=C(CN1CCOCC1)Nc1c(-c2ccccc2)c2cc(Br)ccc2[nH]c1=O        28.2
 5  N#Cc1c(NC(=O)Cn2c(=O)oc3ccccc32)oc(-c2ccccc2)c1-c1ccccc1        4.71
 6  CCn1c(C)cc(/C=C2\SC(=O)N(CC(=O)Nc3ccc(C)c(C)c3)C2=O)c1C        2.14
 7  CCN1C(=O)C2(C(C#N)=C(N)Oc3n[nH]c(-c4ccc(Cl)cc4)c32)c2ccccc21 (stereo not given)       -0.38
 8  CCN1C(=O)C2(C(C#N)=C(N)Oc3n[nH]c(-c4ccccc4)c32)c2ccccc21 (stereo not given)       -4.58
 9  COC(=O)CN1C(=O)C2(C(C#N)=C(N)Oc3cc(C)oc(=O)c32)c2ccccc21 (stereo not given)        1.21
10  Cc1ccc(-n2c(C)nc3c(cnn3-c3ccc(C)c(C)c3)c2=O)cc1C        2.27

====

Target: Aminopeptidase N (Plasmodium falciparum (isolate 3D7)) (UniProt O96935)
Assay: malaria alanyl aminopeptidase activity blockers – biochemical, fluorogenic H-Leu-NHMec substrate, 1536-well (AID 1445);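 further: plate controls were DMSO full reaction for no effect and no enzyme background for full effect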
Conditions: recombinant M1AAP, H-Leu-NHMec fluorogenic kinetic assay; at 30 µM
Hit rate of the full screen: of about 220,000 compounds, about 910 (0.41%) were called active.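 Rule for the calls: active = primary inhibition above the hit cutoff, then over 50% inhibition at one or more dose response concentrations (cut at about 23% in these data, passing the limit was not always enough); inconclusive = conflicting primary data, or primary hits not chosen for dose response; inactive = low primary inhibition, or under 50% at every dose.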 The entries come from a sample that favours actives as a whole. Entries with a potency or affinity are not part of this list.
Classes used: yes (1) (active), no (0) (inactive)

> print(dat)
                                    compound                              assay.target  category.label
 1  COc1cc(/C=C2\SC(c3ccc(C)cc3)=NC2=O)ccc1O  Aminopeptidase N (Plasmodium falciparum (isolate 3D7)) (UniProt O96935)          no (0)
 2          CC(=O)c1ccccc1OC(=O)c1c(F)cccc1F  Aminopeptidase N (Plasmodium falciparum (isolate 3D7)) (UniProt O96935)          no (0)
 3  COc1cccc(/C=N/Nc2ncnc3scc(-c4ccccc4)c23)c1O  Aminopeptidase N (Plasmodium falciparum (isolate 3D7)) (UniProt O96935)          no (0)
 4  CCOc1cc(/C=C2\C(=O)N(c3nc(-c4ccc(Br)cc4)cs3)N=C2c2ccccc2)ccc1O  Aminopeptidase N (Plasmodium falciparum (isolate 3D7)) (UniProt O96935)          no (0)
 5       Cc1cccc(NC(=O)NCc2ccc3c(c2)OCO3)c1C  Aminopeptidase N (Plasmodium falciparum (isolate 3D7)) (UniProt O96935)          no (0)
 6     CC(C)CNc1nc(S(=O)(=O)c2ccccc2)c(Cl)s1  Aminopeptidase N (Plasmodium falciparum (isolate 3D7)) (UniProt O96935)          no (0)
 7  O=C(N=Nc1c(O)[nH]c2ccccc12)c1cccc(S(=O)(=O)Nc2ccccc2Cl)c1  Aminopeptidase N (Plasmodium falciparum (isolate 3D7)) (UniProt O96935)          no (0)
 8    O=S(=O)(c1ccccc1)c1nc(NCc2ccccc2)sc1Cl  Aminopeptidase N (Plasmodium falciparum (isolate 3D7)) (UniProt O96935)          no (0)
 9  COc1ccc(C2=NN(c3ccccc3)C(=O)/C2=C\c2ccc(O)c(OC)c2)cc1  Aminopeptidase N (Plasmodium falciparum (isolate 3D7)) (UniProt O96935)          no (0)
10  O=C(O)CSc1cc(C(=O)c2ccccc2O)cn2c(=O)c3c(-c4ccccc4)csc3nc12  Aminopeptidase N (Plasmodium falciparum (isolate 3D7)) (UniProt O96935)          no (0)
11  Cc1ccc(S(=O)(=O)c2nc(NCCCn3ccnc3)sc2Cl)cc1  Aminopeptidase N (Plasmodium falciparum (isolate 3D7)) (UniProt O96935)          no (0)
12            O=C(NCc1ccccn1)C(=O)NCc1ccccn1  Aminopeptidase N (Plasmodium falciparum (isolate 3D7)) (UniProt O96935)          no (0)
13  Cn1c(=O)c(C(=O)COc2ccc(F)cc2Cl)c(N)n(Cc2ccccc2)c1=O  Aminopeptidase N (Plasmodium falciparum (isolate 3D7)) (UniProt O96935)          no (0)
14          N/C(Cc1nc(-c2ccc(Br)cc2)cs1)=N\O  Aminopeptidase N (Plasmodium falciparum (isolate 3D7)) (UniProt O96935)          no (0)
15            N#CCCN(CCC#N)C(=O)c1ccc(Cl)cc1  Aminopeptidase N (Plasmodium falciparum (isolate 3D7)) (UniProt O96935)          no (0)
16  Cc1nn(Cc2ccccc2)c(Cl)c1/C=C1\NC(=S)NC1=O  Aminopeptidase N (Plasmodium falciparum (isolate 3D7)) (UniProt O96935)          no (0)
17  Cc1ccnc2nc(C(=O)Nc3ccc(S(=O)(=O)N4CCCC4)cc3)nn12  Aminopeptidase N (Plasmodium falciparum (isolate 3D7)) (UniProt O96935)          no (0)
18     Cc1ccc(S(=O)(=O)c2nc(NN(C)C)sc2Cl)cc1  Aminopeptidase N (Plasmodium falciparum (isolate 3D7)) (UniProt O96935)          no (0)
19  CCOC(=O)c1cc(C(=O)c2ccccc2O)cn2c(=O)c3c(C)c(C)sc3nc12  Aminopeptidase N (Plasmodium falciparum (isolate 3D7)) (UniProt O96935)          no (0)
20  CCOc1cc(/C=C2\SC(=S)N(Nc3ccccc3)C2=O)ccc1O  Aminopeptidase N (Plasmodium falciparum (isolate 3D7)) (UniProt O96935)          no (0)
21  O=C1CC(c2cccs2)c2ccc3ccccc3c2N1 (stereo not drawn)  Aminopeptidase N (Plasmodium falciparum (isolate 3D7)) (UniProt O96935)          no (0)
22        CSc1ccc(/C=C/c2ccc3cccc(O)c3n2)cc1  Aminopeptidase N (Plasmodium falciparum (isolate 3D7)) (UniProt O96935)          no (0)
23  O=C(N/N=C/c1ccc(O)c(O)c1)C1c2ccccc2Oc2ccccc21  Aminopeptidase N (Plasmodium falciparum (isolate 3D7)) (UniProt O96935)         yes (1)
